Biological target: UniProtKB Q9NPD5
Sequence (Q9NPD5 whole entry): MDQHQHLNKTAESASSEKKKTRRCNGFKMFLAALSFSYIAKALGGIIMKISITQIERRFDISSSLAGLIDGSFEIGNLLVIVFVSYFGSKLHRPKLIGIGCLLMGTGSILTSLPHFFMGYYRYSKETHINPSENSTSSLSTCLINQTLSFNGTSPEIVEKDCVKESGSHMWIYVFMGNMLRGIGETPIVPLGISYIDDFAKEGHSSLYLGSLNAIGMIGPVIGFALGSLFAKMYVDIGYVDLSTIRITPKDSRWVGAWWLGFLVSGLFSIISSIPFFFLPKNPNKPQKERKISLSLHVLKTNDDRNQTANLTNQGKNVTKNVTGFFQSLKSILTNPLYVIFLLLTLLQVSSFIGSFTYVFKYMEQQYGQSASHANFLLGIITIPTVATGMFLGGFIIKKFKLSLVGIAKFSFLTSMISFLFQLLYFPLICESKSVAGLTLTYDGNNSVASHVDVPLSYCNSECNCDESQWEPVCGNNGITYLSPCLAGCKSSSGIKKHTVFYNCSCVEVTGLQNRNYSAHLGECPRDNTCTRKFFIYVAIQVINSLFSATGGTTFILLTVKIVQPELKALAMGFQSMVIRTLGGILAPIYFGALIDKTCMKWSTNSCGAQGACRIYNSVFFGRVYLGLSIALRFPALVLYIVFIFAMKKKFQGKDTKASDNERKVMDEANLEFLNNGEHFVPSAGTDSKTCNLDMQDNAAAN
Assay: Inhibition of human liver OATP1B3 expressed in HEK293 Flp-In cells assessed as reduction in [3H]E17-betaG uptake at 20 uM incubated for 5 mins by scintillation counting
Conditions: hek293, 5 min
Where a SMILES comes first, the peptide text is derived from it.
ASSAY ENDPOINT: INH (%)

- COMPOUND: "C[C@H](CCC(=O)O)[C@H]1CC[C@H]2[C@@H]3[C@H](O)C[C@@H]4C[C@H](O)CC[C@]4(C)[C@H]3C[C@H](O)[C@]12C"
  OUTPUT UNIT: "%"
  VALUE OBSERVED: 40.8
- COMPOUND: "Cn1c(=O)c2c(ncn2C)n(C)c1=O"
  OUTPUT UNIT: "%"
  VALUE OBSERVED: 22.1
- COMPOUND: "COc1cc2c(c(OC)c1OC)-c1ccc(OC)c(=O)cc1[C@@H](NC(C)=O)CC2"
  OUTPUT UNIT: "%"
  VALUE OBSERVED: -3.9
- COMPOUND: "OC(Cn1cncn1)(Cn1cncn1)c1ccc(F)cc1F"
  OUTPUT UNIT: "%"
  VALUE OBSERVED: 7.5
- COMPOUND: "CC(C)[C@H](N)C(=O)OCCOCn1cnc2c(=O)[nH]c(N)nc21"
  OUTPUT UNIT: "%"
  VALUE OBSERVED: 6.6
- COMPOUND: "CCCN(CCC)S(=O)(=O)c1ccc(C(=O)O)cc1"
  OUTPUT UNIT: "%"
  VALUE OBSERVED: 22
- COMPOUND: "CN(CCOc1ccc(CC2SC(=O)NC2=O)cc1)c1ccccn1 (centres undefined)"
  OUTPUT UNIT: "%"
  VALUE OBSERVED: -32.1
- COMPOUND: "Oc1ncnc2[nH]ncc12"
  OUTPUT UNIT: "%"
  VALUE OBSERVED: 10.8
- COMPOUND: "COc1ccc2c(c1)[C@]13CCCC[C@@H]1[C@H](C2)N(C)CC3"
  OUTPUT UNIT: "%"
  VALUE OBSERVED: -21.9
- COMPOUND: "COc1ccc2c3c([nH]c2c1)[C@H](CC(C)C)N1C(=O)[C@H](CCC(=O)OC(C)(C)C)NC(=O)[C@@H]1C3"
  OUTPUT UNIT: "%"
  VALUE OBSERVED: 24.2
- COMPOUND: "CCc1nn(CCCN2CCN(c3cccc(Cl)c3)CC2)c(=O)n1CCOc1ccccc1"
  OUTPUT UNIT: "%"
  VALUE OBSERVED: 61.4
- COMPOUND: "CN(C)[C@@H]1C(O)=C(C(N)=O)C(=O)[C@@]2(O)C(O)=C3C(=O)c4c(O)cccc4[C@@](C)(O)[C@H]3C[C@@H]12"
  OUTPUT UNIT: "%"
  VALUE OBSERVED: 29.5
- COMPOUND: "O=C1c2c(O)ccc(O)c2C(=O)c2c(NCCNCCO)ccc(NCCNCCO)c21"
  OUTPUT UNIT: "%"
  VALUE OBSERVED: 67.9
- COMPOUND: "NCC(=O)N1CCC[C@H]1C(=O)O [GLYCYL PROLINE] (H-Gly-Pro-OH)"
  OUTPUT UNIT: "%"
  VALUE OBSERVED: 9.6
